pKd: −log10 of the molar value.
This document collects pKd values reported for cNTnC(C35S/C84S)·Ca^2+·cTnI147−163 (Homo sapiens, UniProt P19429+P63316, C35S/C84S).
Attribute measured: pKd

A. CC1CC(=O)NN=C1c1ccc(N)cc1 (centres unmarked)
B. CC1CC(=O)NN=C1c1ccc(-n2ccnc2)cc1 (centres unmarked)
Task: Of A and B , whose reported pKd is numerically smaller? Lab log: write the label of the selected item as the result.
Result: B
(B: 1.96, A: 2.19)
